B1: tRNA (parent)
chain: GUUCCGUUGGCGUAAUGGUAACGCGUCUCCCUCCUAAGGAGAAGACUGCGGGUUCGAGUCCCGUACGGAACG

Variants of: B1
assay remarks: yeast fitness relative to wild type (ratio to wild type); higher = fitter; tRNA-Arg(CCU), competitive growth, 37 C, YPD
Variants at the floor of the assay were thinned out.
List of yeast fitness values.
observed property: yeast fitness

{"columns": ["variant identifier", "observed property", "result"],
 "data": [
  ["C11G A21G G51C", "yeast fitness", 0.872],
  ["U7A G23C C66U", "yeast fitness", "≤ 0.5"],
  ["G10A C31U G38C G63A G68C A69G", "yeast fitness", 0.578],
  ["C5U C27U U35G A36G G58C C66U", "yeast fitness", "≤ 0.5"],
  ["C11G A21G A40G G58A C62G", "yeast fitness", "≤ 0.5"],
  ["A21G G25C C61G G68U", "yeast fitness", "≤ 0.5"],
  ["U3A C31G A43U", "yeast fitness", 0.597],
  ["C4G C5U C49A G56A G63C", "yeast fitness", "≤ 0.5"],
  ["G12A A15C C46G G58C C61A", "yeast fitness", "≤ 0.5"],
  ["G25C C46A G58A G63U", "yeast fitness", 0.604],
  ["C11G C31A A42G A43G G68C", "yeast fitness", "≤ 0.5"],
  ["G18A G25C A70U", "yeast fitness", 0.555],
  ["U3A C55G A65C", "yeast fitness", "≤ 0.5"],
  ["U16C A40U A57C A70U", "yeast fitness", 0.585],
  ["C11A G12A U16A G23C", "yeast fitness", "≤ 0.5"],
  ["A43G G44A G56C C62U", "yeast fitness", "≤ 0.5"],
  ["A14G C22G U35G A40C A70G", "yeast fitness", "≤ 0.5"],
  ["G6C G44C A65G A70C", "yeast fitness", "≤ 0.5"],
  ["C24G U35G C66U", "yeast fitness", "≤ 0.5"],
  ["U19G A40G C55G A65C", "yeast fitness", "≤ 0.5"],
  ["C60G G68C", "yeast fitness", 0.603],
  ["G10C A36U U64C C66U A70C", "yeast fitness", "≤ 0.5"],
  ["U2C C29A C31A A40U C49U", "yeast fitness", 0.554],
  ["U26C C55U", "yeast fitness", 0.617],
  ["A20G C31U A42U C46U U59G A65U", "yeast fitness", "≤ 0.5"],
  ["C11U G17A", "yeast fitness", 0.961],
  ["C11U U26A C34G G68C", "yeast fitness", "≤ 0.5"],
  ["C30U A45G A65G", "yeast fitness", 0.538],
  ["C27U A40U U54C", "yeast fitness", "≤ 0.5"],
  ["U16C C27U C29A A40G A43C G50U", "yeast fitness", "≤ 0.5"],
  ["U8C C24A", "yeast fitness", 0.616],
  ["C4A C24U", "yeast fitness", 0.733],
  ["G41A A70U", "yeast fitness", 0.977],
  ["C5U C11A A14G A42G C49U U64A", "yeast fitness", "≤ 0.5"],
  ["G23A C30U", "yeast fitness", 0.68],
  ["C29G C49G G68C", "yeast fitness", "≤ 0.5"],
  ["U64C C66U", "yeast fitness", 0.958],
  ["U8A U47A C60A", "yeast fitness", "≤ 0.5"],
  ["C29U A40G C60G", "yeast fitness", "≤ 0.5"],
  ["G6A U19G C33U C34U", "yeast fitness", "≤ 0.5"],
  ["A20U G38A A57U", "yeast fitness", "≤ 0.5"],
  ["A57G G67A", "yeast fitness", 0.878],
  ["U19C C24U U64A", "yeast fitness", 0.73],
  ["C4A C61U", "yeast fitness", 0.911],
  ["A20C C31A U59C", "yeast fitness", 0.599],
  ["C22G C46U C66G", "yeast fitness", "≤ 0.5"]
]}

Source: the RNAGym collection of RNA variant scans (doi:10.1126/science.aae0568)
